Test system: HT-29
Test: Cytotoxicity against human HT-29 cells assessed as reduction in cell viability up to 100 uM after 72 hrs by CCK-8 assay
Type: functional, cell-based
Active and inactive are the calls of the source. The rule behind the calls is not given here.
measured-parameter: Activity

* COC(OC)C1=CC2=CC(=O)C=C[C@]2(C)CC[C@@H]1C | inactive
* C[C@H]1CC[C@@]2(C)C=CC(=O)C=C2C=C1C=O | inactive
* C[C@H]1CC[C@@]2(C)C=CC(=O)C=C2C=C1CO | inactive

====

Tested on: K562
Assay: Cytotoxicity against human K562 cells assessed as reduction in cell viability up to 100 uM after 72 hrs by CCK-8 assay
Type: functional, cell-based
Activity calls are given as the source filed them. The rule behind the calls is not given here.
measured-parameter: Activity

Example compounds with recorded Activity:
• CC1=CC[C@@]2(C)[C@H](O)CC[C@@H](C(=O)O)[C@@H]2C=C1C = inactive
• C[C@H]1CC[C@@]2(C)C=CC(=O)C=C2C=C1C(=O)O = inactive
• C[C@H]1CC[C@@]2(C)C=CC(=O)C=C2C=C1C=O = inactive
• CC1=CC([C@@H](CCC(=O)O)C(=O)O)=C(C)CC[C@@H]1C = inactive
• C[C@H]1CC[C@@]2(C)C=CC(=O)C=C2C=C1CO = inactive

Okay, now this compound:
Fill blank: measured Activity of the compound COC(OC)C1=CC2=CC(=O)C=C[C@]2(C)CC[C@@H]1C is ____.
inactive
